The reported numbers originate from patent US20080200654A1.

Hi there, I'd appreciate the recorded antibody concentration required to reach half value of mean fluorescence intensity for every entry that follows.
Target: T1, A33 antigen (full-length human A33) (human, UniProt Q99795 22-319)
T1 construct: Class I cell membrane protein of the Ig superfamily; also called GPA33; human A33 antigen
T1 sequence: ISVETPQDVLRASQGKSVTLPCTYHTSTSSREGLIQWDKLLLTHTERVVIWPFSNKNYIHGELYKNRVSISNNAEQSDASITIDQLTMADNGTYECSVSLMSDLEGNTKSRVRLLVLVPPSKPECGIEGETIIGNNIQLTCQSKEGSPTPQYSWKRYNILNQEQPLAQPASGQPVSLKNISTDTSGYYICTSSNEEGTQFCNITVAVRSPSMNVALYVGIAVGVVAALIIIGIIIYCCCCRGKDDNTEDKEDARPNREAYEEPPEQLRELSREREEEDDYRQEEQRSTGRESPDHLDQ
Test: FCM on LS174T cells; grade = ng/ml to reach half MFI 125 (+++ 10<=x<100, ++ 100<=x<1000, + 1000<=x<10000)
Experimental: The reactivity of each type of purified monoclonal antibody obtained in Example 8 to A33-antigen-expressing human colorectal cancer cell line COLO205 cells, LoVo cells (ATCC No. CCL-229), LS174T cells (ATCC No. CL-188), and NCI-H508 cells (ATCC No. CCL-253) was examined by FCM. […] The resultant was washed twice with SB and then 50 μl of an FITC fluorescence-labeled goat anti-human IgG F(ab′)₂ antibody (produced by Southern Biotech), followed by 30 minutes of incubation on ice. […]

125M165DAAA (antibody, V domains shown, Human IgG1 kappa antibody purified from the hybridoma (FERM BP-10106); also called 125M165DAAA antibody) VH: QVQLVESGGGVVQPGRSLRLSCAASGFTFSYYGMHWVRQAPGKGLEWVAVIWYDGSNKYYADSVKGRFTISRDNSKKTLYLQMNSLRAEDTAVYYCARDGHSSGWGDFQHWGQGTLVTVSS VL: EIVLTQSPATLSLSPGERATLSCRASQSVSSSLAWYQQKPGQAPRLLIYDASNRATGIPARFSGSGSGTDFTLTISSLEPEDFAIYYCQQRSNWPPTFGQGTKVEIK | 100 to 1000 ng/mL

Now look at this entry.
Please report the recorded antibody concentration required to reach half value of mean fluorescence intensity for 125R5AAAA (antibody, V domains shown, Human IgG1 kappa antibody purified from the hybridoma (FERM BP-10103); also called 125R5AAAA antibody) VH: EVQLLESGGGLVQPGGSLRLSCAASGFTFSSYAMSWVRQAPGKGLEWVSDISGSGGYTYYADSVKGRFTISRDNSKKTLYLQMNSLRAEDTAVYYCAKTGDGSGSYSPDYWGQGTLVTVSS VL: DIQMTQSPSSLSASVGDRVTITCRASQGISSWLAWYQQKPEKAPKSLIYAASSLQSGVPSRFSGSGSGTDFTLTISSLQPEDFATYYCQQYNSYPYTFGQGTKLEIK . 100 to 1000 ng/mL
